The measurements presented in this section are drawn from patent US20090221642A1.

# Measured target: cloned human M4 receptor (human Muscarinic receptor subtype 4) (Homo sapiens, UniProt P08173)
# Construct: purchased Perkin-Elmer RBHM4M; host or cells: Chinese hamster ovary cells (CHO) membranes
# Sequence (P08173 whole entry): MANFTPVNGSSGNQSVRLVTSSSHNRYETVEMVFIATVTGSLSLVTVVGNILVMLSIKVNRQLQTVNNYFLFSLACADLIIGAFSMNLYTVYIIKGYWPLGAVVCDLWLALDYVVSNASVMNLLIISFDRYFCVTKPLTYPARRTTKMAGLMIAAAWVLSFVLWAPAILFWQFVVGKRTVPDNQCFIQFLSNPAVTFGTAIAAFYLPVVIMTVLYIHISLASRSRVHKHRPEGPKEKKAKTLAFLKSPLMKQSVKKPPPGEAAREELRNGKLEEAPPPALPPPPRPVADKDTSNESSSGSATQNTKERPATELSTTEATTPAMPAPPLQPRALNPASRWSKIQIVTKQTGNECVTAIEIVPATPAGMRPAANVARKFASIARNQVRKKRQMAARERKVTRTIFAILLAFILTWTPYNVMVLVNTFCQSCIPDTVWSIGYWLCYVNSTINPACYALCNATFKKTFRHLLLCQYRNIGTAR
# Assay notes: hM4 receptor GTPγS binding
# Assay type: biochemical
# Measurement conditions: CHO cell membranes expressing hM4; [35S]GTPγS binding; read-out: hM4 EC50
Readout kind: EC50 (µM)
Please give a number only; it is taken to be in µM.

Solved entries:
>  <Compound>
CCOC(=O)N1CCC(C)(N2CCC(n3c(=O)[nH]c4ccc(C)cc43)CC2)C1 (stereo not drawn)

>  <EC50, µM>
1.7

$$$$
>  <Compound>
CC1(N2CCC(n3c(=O)[nH]c4cc(F)ccc43)CC2)CCN(C(=O)OCCF)C1 (stereo not drawn) [Example 10]

>  <EC50, µM>
5.17

$$$$
>  <Compound>
CC1(N2CCC(n3c(=O)[nH]c4ccccc43)CC2)CCN(C(=O)OCCF)C1 (single isomer, unassigned) [Example 32]

>  <EC50, µM>
33.7

$$$$

The compound CCOC(=O)N1CCC(C)(N2CCC(n3c(=O)[nH]c4cc(C)ccc43)CC2)C1 (single isomer, unassigned) showed EC50 equal to 2
